Where these numbers come from: a melting point compilation (Tetko et al.; mined from patent text by program, amines drawn as free bases though some values may be those of a salt)

Listing of entries alongside the reported melting point.

CCOC(=O)c1cc2c(cn1)[nH]c1ccc([N+](=O)[O-])cc12 = 320 to 325 °C
O=C(Cl)c1cc(C(=O)Cl)[nH]n1 = 89 to 91 °C

compound CC#CC(C)(C)NC(=O)C(CC)Oc1cncc(C#N)c1 (stereo unspecified) , melting point observed: 112 to 113 °C

So for O=C1c2ccccc2C(O)N1CCCCSc1ccncc1 (stereo unspecified) , the logged melting point turned out to be 144 to 145 °C

Short answer for `O=C(c1cc2c(cn1)[nH]c1ccccc12)n1ccnc1` : melting point was > 280 °C

Value of melting point reported for the compound `COc1ccc(-c2cc3ccccc3[nH]2)c(O)c1` is 195 °C

Kindly note the recorded melting point for `COc1cc(C2=C(c3cn(C)c4ccccc34)C(=O)NC2=O)cc(OC)c1OC` , which is 187 °C

Entry CCCCCCCCCCCc1nnc2n1-c1ccccc1C(c1ccc(Cl)cc1)NC2 (stereo unspecified) , melting point reported as 94 to 95 °C

# melting point (compound: `Cc1c(C(=O)O)c(=O)c(-c2ccccc2)cn1C` ) is 227 to 228 °C

Short answer for `COc1ccc(/C=C/C(=O)C#CCO)cc1` : melting point was 68 to 69 °C

Value of melting point reported for the compound `NC(=O)c1cc(Cl)c(Sc2ccc(Cl)cc2)c(Cl)c1` is 171 to 174 °C

---

melting point values by entry

C=C(C)COc1ccc2c(=O)c(C)c(-c3ccccc3)oc2c1C(=O)C=Cc1cccc(OC)c1 = 131 to 134 °C
O=c1[nH]c2c(-c3ccccc3F)nnn2c2ccccc12 = 238 to 241 °C
CCC1CC(=O)N(Cc2ccc(N)cc2)N=C1c1ccc(OC)c(OC2CCCC2)c1 (stereo not given) = 109 °C

Entry `COc1ccnc(CCc2nc3cc(-c4cccs4)cnc3[nH]2)c1` — recorded melting point = 132 to 133 °C

Lab note: `COc1cc(CCC(=O)O)ccc1OCCCc1cn(-c2ccc(C(F)(F)F)cn2)nc1C(C)C` gave melting point of 118 to 119 °C

Summary for this compound, CCOC(C)O[C@H]1C(=O)N(C(=O)OCc2ccccc2)[C@H]1c1ccccc1 (stereo not given in full) : melting point is 58 to 60 °C

---

The following compounds are listed with their measured melting point values.

Kindly note the recorded melting point for CCOC(=O)C1(O)CC(c2ccncc2)=NNC1=O (configuration not stated) , which is 160 to 163 °C

---

measured-quantity: melting point

Would you please look over these solved cases?
O=c1ccn(-c2cc3[nH]c(=O)c(=O)[nH]c3cc2F)cc1 = > 300 °C
O=C(COc1ccc2ccccc2c1)NC(Cc1ccccc1)C(=O)CSCc1ccco1 (stereo not given) = 115 to 118 °C
CC(=O)Oc1cc(-c2ccccc2)oc(=O)c1Sc1ccccc1C(C)C = 113 to 115 °C
CC(=O)N1CC(=O)Nc2ccccc21 = 164 to 165 °C

Consider the additional compound presented here.
Per the record, `CN(CCO)S(=O)(=O)c1cc([N+](=O)[O-])c(Cl)s1` has melting point of 62 °C

---

measured-quantity: melting point

Documented melting point of `O=c1oc2cc(O)ccc2c(O)c1C1=CCOc2oc3ccccc3c(=O)c21` : > 300 °C

---

measured-quantity: melting point

Solved entries:
COc1nccc(Oc2ccc(NC(=O)c3cc(F)cc(N4CCOCC4)c3)c3ccccc23)n1 = 216 to 217 °C
COc1ccc(N2CCN(c3ccc(-n4ccn(CC(F)(F)F)c4=O)cc3)CC2)cc1 = 224 °C

// melting point lookup, compound = CCOC(=O)C(C)(Cc1ccc(O)c(OC)c1)NN (stereo not given) , result: 114 to 116 °C

melting point reading for `COc1cc2c(cc1CCCCN(C)C)[nH]c1cc(-c3ccccc3Cl)c3c(c12)C(=O)NC3=O` : 162 to 164 °C

So for `CC(C)(C)C(=O)Oc1nc2c(N)ncnc2n1Cc1ccccc1` , the logged melting point turned out to be 202 to 204 °C

---

measured-quantity: melting point

Nc1nc2ccc(CCN3CCC(Cc4ccccc4)CC3)cc2s1 = 152 to 153 °C
CC(=O)Nc1ccc2c(c1)OCO2 = 138 to 139 °C
CC(=O)NCc1cccc(Nc2nccc(-c3sc(-c4ccc(C)nc4)nc3C)n2)c1 = 227 to 229 °C

Quick note, melting point for `COc1cc(OC)cc(-c2ncn(-c3ccc(C(F)(F)F)cc3)c2-c2ccc(N(C)C)cc2)c1` landed at 84 to 84.5 °C

The reported melting point of the compound `COc1ccc(C=CC(=O)Nc2c(-c3ccccc3C)c3cc4c(cc3oc2=O)CCC4)cc1OC` was 159 to 160 °C

Summary for this compound, `COc1cc(Oc2cccc3c2NC(=O)C3)cc(OC)c1OC` : melting point is 170 to 171 °C

The compound CC(=O)c1ccc(C#CCOC2CCC3C4CCC5CC(C)(O)CCC5(C)C4CCC23C)cc1 (stereo not given) showed melting point equal to 52 to 55 °C

Briefly, melting point measured for `O=c1ncc(F)cn1COCc1ccc(Cl)cc1` : 103 °C

Per the record, `Cc1cc2c(cc1Cl)nc(Br)n2[C@@H]1OC[C@@H](O)[C@@H](O)[C@H]1O` has melting point of 150 °C

Lab note: measured melting point of COCCOC(=O)C1=C(C)NC(C)=C(c2nnco2)C1c1cccc(Cl)c1Cl (stereo not given) was 190 to 192 °C

---

Recorded melting point by entry

CC[C@H]1C(=O)N(S(=O)(=O)c2ccc3ccccc3c2)[C@H]2CCN(C(=O)OCc3ccccc3)[C@H]12 (relative stereo) = 156 °C
CC(Oc1ncn(-c2ccc(C(F)(F)F)cc2)n1)C(=O)O (configuration not stated) = 215 to 218 °C
CCC(CN1C(=O)c2ccccc2C1=O)N1CCC(c2noc3cc(F)ccc23)CC1 (configuration not stated) = 86 to 88 °C
CN(C)c1nn2nnnc2c2c1CCCC2 = 239 to 240 °C
Cc1cccc(C)c1NC(=O)CC1CCN(CCC2CCOc3ccccc32)CC1 (configuration not stated) = 136 °C
COc1ccccc1Cc1cccc(-c2ncc3c(n2)CC(C)(C)CC3)n1 = 251 to 252 °C
CCCCCCCCCCOC(C)c1ccc(C(=O)O)cc1 (single isomer, unassigned; (+)) = 56.6 to 57.5 °C
O=C(c1ccccc1)c1ccc(N2CCC(N3C(=O)OCc4ccccc43)CC2)c([N+](=O)[O-])c1 = 272 to 273 °C

The recorded melting point for N=C(N)NCCCCCOc1cccc2c1NC(=O)C(CC(=O)O)C2 (configuration not stated) is 126 to 131 °C

Lab note: measured melting point of `CSc1ccc(C)cc1[N+](=O)[O-]` was 71 to 73 °C

The recorded melting point for `COc1ccc(S(=O)(=O)c2ncoc2C(C)C)cc1` is 98 to 100 °C

---

measured-quantity: melting point

Previously resolved entries follow.
COC(=O)C(=O)c1cc(F)c(OCCOc2ccc3ccccc3c2)c(F)c1 = 114 to 115 °C
O=C(CBr)c1ccc(Br)c(Br)c1 = 60 to 61 °C
CON=C(C(=O)OC)c1csc(N)n1 = 165 °C
CNC(=O)c1ccccc1Nc1nc(Nc2ccc3c(c2)CCOCC3)ncc1Cl = 185 °C

# melting point of `CC(C)c1onc(-c2c(Cl)cccc2Cl)c1COc1ccc(NCc2ccc(C(=O)O)cc2)c(C(F)(F)F)n1` = 259 to 260 °C

Measured melting point of `CCN(CC)CCNc1nc2cccnc2n(-c2ccc(OC)cc2)c1=O` : 167 to 168 °C

Recorded melting point (molecule `COC(=O)c1cc(CCNc2ncnc3nccnc23)ccc1Oc1cc(C(F)(F)F)ccn1` ): 171 to 172 °C

---

Measured melting point, listed per entry for reference.

Completed entries (count: 5):
Cc1ccc(N(c2ccc(-c3ccc(-c4ccc(N(c5ccc(C)cc5)c5ccc6c(c5)CCC6)cc4)cc3)cc2)c2ccc3c(c2)CCC3)cc1 = 207 to 208 °C
CCC(=O)N1CCC(=NO)c2cc(Cl)ccc21 = 166 to 169 °C
CN1C(=O)C(=Cc2ccc(O)c(C(C)(C)C)c2)SC1=S = > 230 °C
Cc1cc(-c2ccc(S(C)=O)cc2)n(-c2ccc(S(N)(=O)=O)cc2)c1 (centres undefined) = 222 to 226 °C
COc1ccc(/C=C/c2nc3c([nH]2)c(=O)n(C)c(=O)n3C)cc1Br = > 280 °C

Looking up `CN(C(=O)c1cccc(S(=O)(=O)N(C)c2ccc(Br)cc2)c1)c1ccc(Cl)cc1F` , I found its melting point recorded as 127 to 128 °C

// melting point value for `N=C(Nc1cccc(NC(=O)CNC(=O)OCc2ccccc2)c1)N1CCCC1` : 81 to 82 °C

Record `CC(=O)CC(=O)Nc1nnc(C(C)(C)C)s1` . Reported melting point: 166 to 168 °C

Query `CCC1(CC)OC(=O)Nc2ccccc21` yields melting point of 159 to 160 °C

Entry `COc1cc(Nc2nc3cccc(-c4ccc(NC(C)=O)cc4)c3o2)cc(OC)c1OC` , melting point reported as 265 to 270 °C

melting point reading for `CC(C)(C)OC(=O)NC1CCN(C(=O)C2CCN(C(=O)OCc3ccccc3)CC2)CC1` : 150 to 152 °C

Data point: `O=c1cc(-c2ccc(OCCOCCOCCOc3ccc(-c4cc(=O)c5c(O)cc(O)cc5o4)cc3)cc2)oc2cc(O)cc(O)c12` ; melting point = 143 to 145 °C

Per the record, `CC(C)(C)c1ccc(C(=O)Nc2cn3cc(F)ccc3n2)cc1` has melting point of 250 to 251 °C

According to the records, this molecule `O=[N+]([O-])c1cc(C2=Nc3ccccc3SC2)cc(O)c1O` displays melting point of 302 to 304 °C
